# Ki measurements, system: UniProtKB P28223
# Sequence (P28223 whole entry): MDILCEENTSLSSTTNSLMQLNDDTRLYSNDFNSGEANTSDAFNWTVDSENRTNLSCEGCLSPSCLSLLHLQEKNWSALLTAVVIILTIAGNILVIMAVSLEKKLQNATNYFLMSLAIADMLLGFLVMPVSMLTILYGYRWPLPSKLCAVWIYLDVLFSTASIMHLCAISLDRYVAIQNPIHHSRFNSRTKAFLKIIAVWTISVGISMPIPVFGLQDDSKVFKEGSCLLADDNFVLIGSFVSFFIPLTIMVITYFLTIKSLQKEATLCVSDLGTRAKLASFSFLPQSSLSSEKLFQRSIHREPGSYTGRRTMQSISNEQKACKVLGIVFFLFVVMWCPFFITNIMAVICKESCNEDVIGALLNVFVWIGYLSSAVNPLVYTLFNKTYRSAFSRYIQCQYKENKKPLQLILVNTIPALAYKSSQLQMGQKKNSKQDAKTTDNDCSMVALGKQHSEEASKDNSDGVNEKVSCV
Entry rule: numbers only, all in µM.

CCCCCCc1cc(OC)c(CC(C)N)cc1OC (stereo not drawn) : 0.0001
CCCc1cc(OC)c(CC(C)N)cc1OC (stereo not drawn) : 0.0009
COCCOCCl : 0.073
COc1cc(CC(C)N)cc(OC)c1OC (stereo not drawn) : 0.0579
COc1cc(CC(C)[N+](C)(C)C)c(OC)cc1Br (stereo not drawn) : 2.15

Quote UniProtKB P28223 Ki for entry COc1cc(CC(C)N(C)C)c(OC)cc1Br (stereo not drawn) .
0.0942

Quote UniProtKB P28223 Ki for entry COc1cc(CC(C)N)c(OC)cc1F (stereo not drawn) .
0.0417

Quote UniProtKB P28223 Ki for entry COc1cc(C(C)=O)c(OC)cc1CC(C)N (stereo not drawn) .
0.0805

Quote UniProtKB P28223 Ki for entry COc1cc(C(C)(C)C)c(OC)cc1CC(C)N (stereo not drawn) .
0.0037

Quote UniProtKB P28223 Ki for entry COc1cc(CC(C)N)c(OC)cc1Cc1ccccc1 (stereo not drawn) .
0.0004

Quote UniProtKB P28223 Ki for entry COc1cc([N+](=O)[O-])c(OC)cc1CC(C)N (stereo not drawn) .
0.0055

Quote UniProtKB P28223 Ki for entry `C[C@]12CC[C@H]3[C@@H](CCC4=CC(=O)CC[C@@]43C)[C@@H]1CC[C@@H]2C(=O)CO` .
0.0014

Quote UniProtKB P28223 Ki for entry COc1cc(CC(C)N)c(OC)cc1C#N (stereo not drawn) .
0.0457

###

# pKi measurements, system: 5-hydroxytryptamine receptor 2B (Homo sapiens, UniProt P41595)
# Sequence (P41595 whole entry): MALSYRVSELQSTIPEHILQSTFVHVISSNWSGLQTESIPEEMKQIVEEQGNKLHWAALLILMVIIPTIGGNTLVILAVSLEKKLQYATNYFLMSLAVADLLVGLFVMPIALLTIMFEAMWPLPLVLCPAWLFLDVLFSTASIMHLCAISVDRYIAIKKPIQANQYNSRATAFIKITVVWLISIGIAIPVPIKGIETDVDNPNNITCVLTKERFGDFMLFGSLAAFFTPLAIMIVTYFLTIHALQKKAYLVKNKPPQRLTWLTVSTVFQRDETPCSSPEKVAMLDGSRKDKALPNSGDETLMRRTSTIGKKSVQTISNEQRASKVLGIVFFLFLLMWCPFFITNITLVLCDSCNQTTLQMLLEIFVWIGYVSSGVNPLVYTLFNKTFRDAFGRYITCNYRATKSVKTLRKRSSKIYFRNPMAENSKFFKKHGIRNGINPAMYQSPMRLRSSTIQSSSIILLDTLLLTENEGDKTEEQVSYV
Please express pKi as -log10 of the molar concentration.

These solved cases illustrate the format of a correct answer.
COc1cc(CC(C)N)c(OC)cc1Br (stereo not drawn) : 7.57
CCCNC(C)Cc1cc(OC)c(Br)cc1OC (stereo not drawn) : 6.28
COc1cc(CC(C)N)cc(OC)c1OC (stereo not drawn) : 6.51
C[C@]12CC[C@H]3[C@@H](CCC4=CC(=O)CC[C@@]43C)[C@@H]1CC[C@@H]2C(=O)CO : 7.50
COc1cc(C(C)=O)c(OC)cc1CC(C)N (stereo not drawn) : 6.50

Look up and report measured pKi for this entry: CCCc1cc(OC)c(CC(C)N)cc1OC (stereo not drawn)
7.26

Look up and report measured pKi for this entry: COc1cc(CC(C)N)c(OC)cc1Cc1ccccc1 (stereo not drawn)
7.46

Look up and report measured pKi for this entry: COc1cc([N+](=O)[O-])c(OC)cc1CC(C)N (stereo not drawn) [DON]
6.78

Look up and report measured pKi for this entry: COc1cc(CC(C)N)c(OC)cc1C#N (stereo not drawn)
6.11

###

Target: 5-hydroxytryptamine receptor 2C (Homo sapiens, UniProt P28335)
Sequence (P28335 whole entry): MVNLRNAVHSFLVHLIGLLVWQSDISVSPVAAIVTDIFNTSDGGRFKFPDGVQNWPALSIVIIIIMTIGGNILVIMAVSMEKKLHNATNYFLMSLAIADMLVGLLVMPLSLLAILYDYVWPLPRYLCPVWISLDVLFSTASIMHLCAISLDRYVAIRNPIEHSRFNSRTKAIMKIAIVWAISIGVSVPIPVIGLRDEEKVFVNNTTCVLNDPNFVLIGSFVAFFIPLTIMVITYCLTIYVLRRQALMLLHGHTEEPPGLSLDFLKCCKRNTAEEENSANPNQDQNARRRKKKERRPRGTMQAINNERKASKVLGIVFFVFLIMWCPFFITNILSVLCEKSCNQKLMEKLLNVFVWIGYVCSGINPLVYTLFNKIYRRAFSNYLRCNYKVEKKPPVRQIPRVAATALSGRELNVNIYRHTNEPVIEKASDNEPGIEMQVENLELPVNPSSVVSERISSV
endpoint: log10(Ki) (log10 of the value in nM)
In our notation, the value equals log10 of Ki in nM.

Look up and report measured log10(Ki) for this entry: CCCCCCc1cc(OC)c(CC(C)N)cc1OC (centres undefined) [DOHx]
-0.15

Look up and report measured log10(Ki) for this entry: COc1cc(C(C)(C)C)c(OC)cc1CC(C)N (centres undefined) [DOTB]
0.34

Look up and report measured log10(Ki) for this entry: COCCOCCl [CAS_3970-21-6]
2.09

Look up and report measured log10(Ki) for this entry: COc1cc(CC(C)N)c(OC)cc1Cc1ccccc1 (centres undefined)
0.00

###

biological target: 5-hydroxytryptamine receptor 2B (Rattus norvegicus, UniProt P30994)
Sequence (P30994 whole entry): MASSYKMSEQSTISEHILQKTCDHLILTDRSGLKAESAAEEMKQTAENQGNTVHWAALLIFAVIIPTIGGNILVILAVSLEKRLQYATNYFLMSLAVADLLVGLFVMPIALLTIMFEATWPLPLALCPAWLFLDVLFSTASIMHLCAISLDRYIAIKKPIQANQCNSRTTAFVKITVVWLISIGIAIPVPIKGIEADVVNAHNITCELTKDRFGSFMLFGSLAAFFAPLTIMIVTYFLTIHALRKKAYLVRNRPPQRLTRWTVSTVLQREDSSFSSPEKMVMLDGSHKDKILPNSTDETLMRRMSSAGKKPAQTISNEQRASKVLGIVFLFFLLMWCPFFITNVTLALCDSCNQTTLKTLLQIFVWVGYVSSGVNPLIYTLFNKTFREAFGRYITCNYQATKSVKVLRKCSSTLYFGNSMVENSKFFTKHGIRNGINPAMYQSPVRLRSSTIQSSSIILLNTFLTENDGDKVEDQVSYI
Lab note: compare Ki with 100 nM, writing criterion met if less and criterion not met if equal or more.

COc1cc(CC(C)N)c(OC)cc1C#N (centres undefined) : criterion not met
CCCc1cc(OC)c(CC(C)N)cc1OC (centres undefined) : criterion not met
COc1cc(CC(C)[N+](C)(C)C)c(OC)cc1Br (centres undefined) : criterion not met
COc1cc(CC(C)N)cc(OC)c1OC (centres undefined) : criterion not met
CCCNC(C)Cc1cc(OC)c(Br)cc1OC (centres undefined) : criterion not met
COc1cc(C(C)=O)c(OC)cc1CC(C)N (centres undefined) : criterion not met
CCCCCCc1cc(OC)c(CC(C)N)cc1OC (centres undefined) : criterion met
COc1cc(CC(C)N)c(OC)cc1Cc1ccccc1 (centres undefined) : criterion met
COc1cc([N+](=O)[O-])c(OC)cc1CC(C)N (centres undefined) : criterion not met
C[C@]12CC[C@H]3[C@@H](CCC4=CC(=O)CC[C@@]43C)[C@@H]1CC[C@@H]2C(=O)CO : criterion met

is_below(Ki, 100 nM) for `COCCOCCl` ?
criterion not met

###

Below is a list of entries, each paired with its recorded Ki value.
target: 5-hydroxytryptamine receptor 2B (Homo sapiens)
Entry rule: numbers only, all in nM.

COc1cc(CC(C)N(C)C)c(OC)cc1Br (stereo not drawn) : 341
COc1cc(CC(C)N)c(OC)cc1F (stereo not drawn) : 227

Please find the next molecule below.
Quote 5-hydroxytryptamine receptor 2B (Homo sapiens) Ki for entry COc1ccc(OC)c(CC(C)N)c1 (stereo not drawn) .
1040

###

# pKi measurements, system: 5-hydroxytryptamine receptor 2B (Homo sapiens)
Please express pKi as -log10 of the molar concentration.

Quote 5-hydroxytryptamine receptor 2B (Homo sapiens) pKi for entry COc1cc(C(C)(C)C)c(OC)cc1CC(C)N (centres undefined) .
7.61

Quote 5-hydroxytryptamine receptor 2B (Homo sapiens) pKi for entry CCCCCCc1cc(OC)c(CC(C)N)cc1OC (centres undefined) .
7.52

Quote 5-hydroxytryptamine receptor 2B (Homo sapiens) pKi for entry `COCCOCCl` .
6.12

###

Target: 5-hydroxytryptamine receptor 2C (Homo sapiens, UniProt P28335)
Sequence (P28335 whole entry): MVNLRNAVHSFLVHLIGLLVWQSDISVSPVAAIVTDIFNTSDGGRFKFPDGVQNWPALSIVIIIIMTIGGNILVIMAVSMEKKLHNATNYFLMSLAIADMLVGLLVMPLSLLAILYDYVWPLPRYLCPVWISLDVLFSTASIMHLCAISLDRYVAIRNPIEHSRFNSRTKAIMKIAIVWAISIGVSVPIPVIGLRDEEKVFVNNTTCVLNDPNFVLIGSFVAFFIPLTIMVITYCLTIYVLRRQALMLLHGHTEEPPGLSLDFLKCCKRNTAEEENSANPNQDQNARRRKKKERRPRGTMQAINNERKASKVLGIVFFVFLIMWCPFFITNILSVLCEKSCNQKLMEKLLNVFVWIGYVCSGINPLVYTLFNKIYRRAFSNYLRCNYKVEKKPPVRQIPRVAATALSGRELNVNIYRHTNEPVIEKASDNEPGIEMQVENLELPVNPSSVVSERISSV
pKi: −log10 of the molar value.
Parameter threshold = 8. Response is True when pKi meets or exceeds it, else False.

Solved cases (2 shown):
COc1ccc(OC)c(CC(C)N)c1 (stereo not given) : False
CCCNC(C)Cc1cc(OC)c(Br)cc1OC (stereo not given) : False

hey, is pKi for this one >= 8? COc1cc(CC(C)N)c(OC)cc1F (stereo not given)
False

hey, is pKi for this one >= 8? `C[C@]12CC[C@H]3[C@@H](CCC4=CC(=O)CC[C@@]43C)[C@@H]1CC[C@@H]2C(=O)CO`
True

hey, is pKi for this one >= 8? COc1cc(C(C)=O)c(OC)cc1CC(C)N (stereo not given)
False

hey, is pKi for this one >= 8? CCCc1cc(OC)c(CC(C)N)cc1OC (stereo not given)
True

hey, is pKi for this one >= 8? COc1cc([N+](=O)[O-])c(OC)cc1CC(C)N (stereo not given)
False

hey, is pKi for this one >= 8? COc1cc(CC(C)N)c(OC)cc1C#N (stereo not given)
False

hey, is pKi for this one >= 8? COc1cc(CC(C)[N+](C)(C)C)c(OC)cc1Br (stereo not given)
False

hey, is pKi for this one >= 8? COc1cc(CC(C)N(C)C)c(OC)cc1Br (stereo not given)
False

Source of measurements: BindingDB's records for doi:10.1007/pl00005315
